Reference source for all entries: patent US20160031986A1

# Test Target: cynomolgus monkey DLL4 extracellular domain (cynomolgus monkey)
# Protocol Summary: Biacore SPR
Readout Name: log10(koff) (log10 of the value in s⁻¹)
For clarity, the numbers are log10 values of koff expressed in s⁻¹.

[[record]]
binder = "h1A11.A11 (antibody, V domains shown) VH: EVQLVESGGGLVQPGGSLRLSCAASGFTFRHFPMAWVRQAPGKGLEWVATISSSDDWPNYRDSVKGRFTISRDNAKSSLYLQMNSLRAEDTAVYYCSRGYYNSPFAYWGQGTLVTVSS VL: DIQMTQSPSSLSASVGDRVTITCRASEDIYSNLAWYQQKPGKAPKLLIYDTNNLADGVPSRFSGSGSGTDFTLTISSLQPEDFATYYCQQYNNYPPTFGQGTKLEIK"
measured_number = -4.47

[[record]]
binder = "h1A11.C6 (antibody, V domains shown) VH: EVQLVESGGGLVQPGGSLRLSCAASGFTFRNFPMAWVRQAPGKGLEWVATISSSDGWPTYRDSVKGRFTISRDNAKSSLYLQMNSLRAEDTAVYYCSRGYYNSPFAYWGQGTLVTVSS VL: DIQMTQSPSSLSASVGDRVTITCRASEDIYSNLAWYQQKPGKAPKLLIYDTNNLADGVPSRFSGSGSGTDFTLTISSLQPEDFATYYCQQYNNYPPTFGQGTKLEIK"
measured_number = -4.51

[[record]]
binder = "14G1 rat monoclonal antibody (antibody, V domains shown) VH: EVQLQQSGAELAKPGSSVKISCKASGYTFTNYDISWIKQTNGQGLEYLGYINTGSGGIYSNEKFKGKATLTVDKSSNTAFMQLSSLTPEDTAVYYCVREGNNFDHWGQGVKVTVSS VL: DTVMTQSPASMSTSVGERVTVNCKASQSVGTIVAWFQQKPGQSPKRLIYLATYRHTGVPDRFIGSGFGRDFTLTISNVEAEDLAVYYCLQYGSRPFTFGAGTKLEIKR"
measured_number = -3.39

[[record]]
binder = "h1A11.B5 (antibody, V domains shown) VH: EVQLVESGGGLVQPGGSLRLSCAASGFTFRYFPMSWVRQAPGKGLEWVASISGSDGWASYRDSVKGRFTISRDNAKNSLYLQMNSLRAEDTAVYYCARGYYNSPFASWGQGTLVTVSS VL: DIQMTQSPSSLSASVGDRVTITCRASQDIWNNLAWYQQKPGKSPKLLIFDTSYLADGVPSRFSGSGSGTDFTLTISSLQPEDFATYYCQQYDWYPPTFGQGTKLEIK"
measured_number = -3.75


Shifting focus to the binder that follows.
The recorded log10(koff) for entry h1A11.H2 (antibody, V domains shown) VH: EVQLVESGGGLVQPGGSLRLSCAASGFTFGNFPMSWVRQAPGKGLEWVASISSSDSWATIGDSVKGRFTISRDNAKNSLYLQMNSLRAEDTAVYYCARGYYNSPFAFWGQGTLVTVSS VL: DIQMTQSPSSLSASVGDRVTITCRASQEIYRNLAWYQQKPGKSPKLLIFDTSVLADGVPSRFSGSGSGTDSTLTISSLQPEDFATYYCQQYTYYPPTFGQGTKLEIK equals -4.34
